// provenance: patent US9469615B2

Target: hCRTH2 (Homo sapiens)
Construct: expressed in transfected cells; host or cells: HEK (human embryonic kidney) cells expressing hCRTH2; membrane preparation
Sequence (Q9Y5Y4 whole entry): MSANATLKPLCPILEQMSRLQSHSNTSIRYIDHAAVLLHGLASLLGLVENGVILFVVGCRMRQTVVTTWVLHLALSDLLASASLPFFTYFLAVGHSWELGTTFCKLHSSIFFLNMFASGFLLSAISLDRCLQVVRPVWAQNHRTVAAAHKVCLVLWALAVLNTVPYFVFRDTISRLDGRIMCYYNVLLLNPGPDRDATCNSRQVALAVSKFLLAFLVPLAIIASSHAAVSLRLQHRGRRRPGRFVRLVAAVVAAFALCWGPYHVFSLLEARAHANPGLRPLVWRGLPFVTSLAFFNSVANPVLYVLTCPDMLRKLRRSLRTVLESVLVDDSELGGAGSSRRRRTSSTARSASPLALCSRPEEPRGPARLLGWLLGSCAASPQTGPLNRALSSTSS
Test: Radioligand binding assay ([3H]PGD2 competition, HEK-hCRTH2 membranes)
Conditions: [3H]PGD2 competition, Table B
pKi: −log10 of the molar value.
Experimental readout: pKi

O=C(O)CCCCc1nc2cc(C(=O)N3CCO[C@H](c4ccc(C(F)(F)F)cc4)C3)ccc2nc1-c1ccc(Cl)cc1    6.70 to 7.70

Task item: Please tell me the measured pKi for O=C(O)Cc1cccc(-c2nc3cc(C(=O)N4CCN(c5ccccc5)CC4)ccc3nc2-c2ccc(Cl)cc2)c1 ; system: hCRTH2 (Homo sapiens).
Reply: 6.15 to 6.70

Task item: Provide pKi, system hCRTH2 (Homo sapiens), entry CC1(C)CC[C@H](NC(=O)c2ccc3nc(-c4ccccc4)c(CCCCC(=O)O)nc3c2)c2ccccc21
Reply: 7.70 to 8.68

Task item: Check hCRTH2 (Homo sapiens) data and give pKi for C[C@@H](CCCc1nc2cc(C(=O)N[C@@H]3CCCc4ccccc43)ccc2nc1-c1ccc(F)cc1)C(=O)O .
Reply: 7.70 to 8.68

Task item: Provide pKi, system hCRTH2 (Homo sapiens), entry O=C(O)CCCCc1nc2cc(C(=O)N3CC(c4cccc(Cl)c4)C3)ccc2nc1-c1ccc(Cl)cc1
Reply: 8.70 to 10.00

Task item: Jot down pKi (hCRTH2 (Homo sapiens)) of CC(c1ccoc1)N(C)C(=O)c1ccc2nc(-c3ccc(Cl)cc3)c(CCCCC(=O)O)nc2c1 (centres unmarked) .
Reply: 6.70 to 7.70
